These data points were gathered from patent US9175077B2.

Test system: HIV-1
Settings: read-out: concentration at which virus production was inhibited 50%; IIIB and Ba-L; p24 in extracellular fluid
pIC50: −log10 of the molar value.
QUANTITY_KIND: pIC50

Form field: reported pIC50 of VVCNYRDVRFESIRLPGCPRGVNPVVSYAVALSCQ [MA] ~7.52
